# Protocol notes: Gastrointestinal toxicity in po dosed rat assessed as induction of gastric irritation
# Assay type: organism-based, Stomach
# Condition label: in vivo, read-out: ID50 (the source's name)
Readout type: TD50 (mg/kg)

O=C(O)Cc1ccc2c(c1)C(=O)c1sccc1CO2 33.7
